measurement-target: P-glycoprotein (ABCB1) (Homo sapiens, UniProt P08183)
Sequence (P08183 whole entry): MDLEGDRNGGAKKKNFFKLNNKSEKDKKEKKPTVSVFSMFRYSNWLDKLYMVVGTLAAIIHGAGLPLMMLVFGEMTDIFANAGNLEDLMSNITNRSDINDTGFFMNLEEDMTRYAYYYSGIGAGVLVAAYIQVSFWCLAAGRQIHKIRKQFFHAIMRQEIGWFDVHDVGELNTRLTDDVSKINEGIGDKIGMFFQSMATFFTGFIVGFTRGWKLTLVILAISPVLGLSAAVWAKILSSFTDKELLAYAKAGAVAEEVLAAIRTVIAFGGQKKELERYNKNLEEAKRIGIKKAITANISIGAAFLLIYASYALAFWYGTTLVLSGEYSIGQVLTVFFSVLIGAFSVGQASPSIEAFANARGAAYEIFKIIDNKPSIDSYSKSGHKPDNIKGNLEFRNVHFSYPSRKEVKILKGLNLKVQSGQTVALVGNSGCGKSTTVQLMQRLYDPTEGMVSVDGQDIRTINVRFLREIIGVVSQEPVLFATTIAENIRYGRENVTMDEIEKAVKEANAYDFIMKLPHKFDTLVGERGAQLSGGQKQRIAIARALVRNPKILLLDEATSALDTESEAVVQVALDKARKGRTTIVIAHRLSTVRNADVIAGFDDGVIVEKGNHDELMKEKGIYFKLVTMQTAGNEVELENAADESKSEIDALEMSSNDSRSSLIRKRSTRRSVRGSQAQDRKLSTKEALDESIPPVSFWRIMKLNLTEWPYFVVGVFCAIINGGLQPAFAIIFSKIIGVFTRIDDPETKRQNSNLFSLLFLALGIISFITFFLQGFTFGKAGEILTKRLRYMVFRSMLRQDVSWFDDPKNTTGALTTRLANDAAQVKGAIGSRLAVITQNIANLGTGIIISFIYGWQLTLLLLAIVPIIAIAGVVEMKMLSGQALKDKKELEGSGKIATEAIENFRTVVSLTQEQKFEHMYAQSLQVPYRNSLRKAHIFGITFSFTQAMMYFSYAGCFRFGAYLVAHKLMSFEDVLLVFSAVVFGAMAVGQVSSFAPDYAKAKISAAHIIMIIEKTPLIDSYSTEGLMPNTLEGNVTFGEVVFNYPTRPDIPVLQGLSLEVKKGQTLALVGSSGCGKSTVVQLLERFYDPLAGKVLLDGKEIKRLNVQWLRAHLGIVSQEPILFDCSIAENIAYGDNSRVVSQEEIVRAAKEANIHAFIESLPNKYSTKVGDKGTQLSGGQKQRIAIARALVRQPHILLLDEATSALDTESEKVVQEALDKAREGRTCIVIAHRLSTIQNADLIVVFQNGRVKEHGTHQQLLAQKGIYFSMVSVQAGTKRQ
protocol-text: Inhibition of P-glycoprotein/ABCB1-mediated mitoxantrone efflux in HEK293 cells at 1 uM by flow cytometry relative to 5 uM of GF120918
Type: cell-based
details: HEK293 cells with P-glycoprotein/ABCB1-mediated efflux, probe mitoxantrone

{"columns": ["structure-as-smiles", "measurement-units", "inhibition at 1 µM"],
 "data": [
  ["COc1ccc2[nH]cc(CCNC(=O)c3cc(=O)c4c(OCc5ccccc5)cccc4o3)c2c1", "%", -9.11],
  ["COc1ccc(CCNC(=O)c2cc(=O)c3c(OCc4ccccc4)cccc3o2)cc1OC", "%", -25.5],
  ["COc1ccc2[nH]cc(CCNC(=O)c3cc(=O)c4c(OCc5ccc(C)cc5)cccc4o3)c2c1", "%", -4.29],
  ["COc1ccc2[nH]cc(CCNC(=O)c3cc(=O)c4c(OCc5ccc(Br)cc5)cccc4o3)c2c1", "%", -1.75],
  ["COc1ccc2[nH]cc(CCNC(=O)c3cc(=O)c4c(OCCc5ccccc5)cccc4o3)c2c1", "%", -14],
  ["COc1ccc(CCNC(=O)c2cc(=O)c3c(O)cccc3o2)cc1OC", "%", -20.5],
  ["COc1ccc(CCNC(=O)c2cc(=O)c3c(OCCc4ccc(OC)c(OC)c4)cccc3o2)cc1OC", "%", -16.6]
]}
